# targetUnderTest: OsSMF1 (Oryza sativa, UniProt Q6ZLB0 1-436)
# Sequence: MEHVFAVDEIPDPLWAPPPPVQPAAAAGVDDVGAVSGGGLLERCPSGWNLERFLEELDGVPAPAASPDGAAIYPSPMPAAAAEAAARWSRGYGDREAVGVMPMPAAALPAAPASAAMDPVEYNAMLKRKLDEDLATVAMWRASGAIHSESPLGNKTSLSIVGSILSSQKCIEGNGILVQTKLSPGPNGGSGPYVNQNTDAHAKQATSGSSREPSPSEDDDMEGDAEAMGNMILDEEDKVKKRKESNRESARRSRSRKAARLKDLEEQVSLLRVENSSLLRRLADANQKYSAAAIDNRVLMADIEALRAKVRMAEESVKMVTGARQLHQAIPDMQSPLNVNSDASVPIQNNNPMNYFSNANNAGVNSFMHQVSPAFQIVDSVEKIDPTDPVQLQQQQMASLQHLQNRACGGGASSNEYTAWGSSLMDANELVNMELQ
# procedureText: protein-binding microarray (RPBM); PBS, 2% BSA, 51.3 ng/ul salmon testes DNA, 50 uM zinc acetate, 200 nM TF, 25 C, 1 h; high values mean tight binding
# statedConditions: protein: recombinant; tags: N-terminal polyhistidine and DsRed monomer fusion (pET32a); chain copies: 2; label: CyDye5-dUTP incorporated in the synthesized complementary strand; 3' TTTTT single-stranded linker to array surface; dsDNA, one strand shown
Whole data set: some 39,000 sequences, median “fluorescence intensity (a.u.)” near 4,300, cut for the highest 2% near 39,000. The sample as a whole holds a higher share of the highest values than the screen did.
Consider the following sequences; for each one, report its binding signal.

Identify measured binding signal associated with "GCCACTTGCCCAGGTCACGCACACATTATTGAGCGAGCGACGGAGTCACCTAGTGCAG" 4590 fluorescence intensity (a.u.)

Identify measured binding signal associated with "GATGTTCAGATGTACAACAGTAATTTGATTGCATCGGCTTCGGAGTCACCTAGTGCAG" 3270 fluorescence intensity (a.u.)

Identify measured binding signal associated with "TCCATGCTGGTTTTAGTCCTACGTGACAATACAGTCAGCACGGAGTCACCTAGTGCAG" 5640 fluorescence intensity (a.u.)

Identify measured binding signal associated with "AATGCTGCAATTTCTCGTTGACTAGACTTCACATGCAGCTCGGAGTCACCTAGTGCAG" 5400 fluorescence intensity (a.u.)

Identify measured binding signal associated with "AAAATGTCATGTAACTACGCCATTGGACCATAAATATTTTCGGAGTCACCTAGTGCAG" 13600 fluorescence intensity (a.u.)

Identify measured binding signal associated with "GGTTTAACCGTTTGGTAGCTGACATGTGCGCCTGGGCATACGGAGTCACCTAGTGCAG" 3380 fluorescence intensity (a.u.)

Identify measured binding signal associated with "CTCATTTGAACACATGTACACTACTAATCCTCGTTCTGGACGGAGTCACCTAGTGCAG" 39200 fluorescence intensity (a.u.)

Identify measured binding signal associated with "CCGTCGCCGTCGGCACCGCCGCCGGAGCTCCTCCCTGCTCCGGAGTCACCTAGTGCAG" 3220 fluorescence intensity (a.u.)

Identify measured binding signal associated with "AGTACTAGTTGGAATCATATGTGTCTATGGAGTATATTTTCGGAGTCACCTAGTGCAG" 3160 fluorescence intensity (a.u.)

Identify measured binding signal associated with "CGTCCCTTGGACGTCATCTTCTCCTCACGTGCATTGCCTCCGGAGTCACCTAGTGCAG" 4360 fluorescence intensity (a.u.)

Identify measured binding signal associated with "TTTAATGATCTTATAAATTGTAATGCTGATAGGTGGTTATCGGAGTCACCTAGTGCAG" 3590 fluorescence intensity (a.u.)

Identify measured binding signal associated with "TAGTAGATAGCTTTGCTCTCTCTCTTCATTTAATATATTCCGGAGTCACCTAGTGCAG" 4540 fluorescence intensity (a.u.)

Identify measured binding signal associated with "GCAAGCAAAGAAAGTTGTCATCATCCCAATCCTCCTCCGCCGGAGTCACCTAGTGCAG" 4050 fluorescence intensity (a.u.)

Identify measured binding signal associated with "TGCATGTACGATACTGGAGCTGATCCTCGCCATCATATCCCGGAGTCACCTAGTGCAG" 3160 fluorescence intensity (a.u.)

Identify measured binding signal associated with "AGCAAATATTTACTGTAGTACTACACTGTCAAATCATGTACGGAGTCACCTAGTGCAG" 3610 fluorescence intensity (a.u.)

Identify measured binding signal associated with "TCCTTCCATACTGTATAAATACTTTGAAATTCTAATATAGCGGAGTCACCTAGTGCAG" 44200 fluorescence intensity (a.u.)

Identify measured binding signal associated with "GGGGTGAGGTGAGGTTACCACGTCGGCGACGGTGAGGAAGCGGAGTCACCTAGTGCAG" 6110 fluorescence intensity (a.u.)

Identify measured binding signal associated with "CTTCCTTTGATAATATAATATATAGATAAATTCTCTAAGACGGAGTCACCTAGTGCAG" 3200 fluorescence intensity (a.u.)

Identify measured binding signal associated with "TGACCTAATACATTCATGCTGACTAGCGTTTACGTGGCAACGGAGTCACCTAGTGCAG" 14100 fluorescence intensity (a.u.)
